Data provenance is patent US5225607A.

Quick reference: mortality at 100 ppm of the listed items.
System: Tetranychus urticae
Experiment: Insecticidal/acaricidal test, Tetranychus urticae (spider mites - adult), contact
Format: in vivo
Settings: 72 h, 100 ppm, French bean leaf, 3 days, read-out: grading of mortality, TU
Experimental: The activity of the Product was determined using a variety of insect and acarine pests. The Product was used in the form of liquid preparations containing 500, 250 or 100 parts per million (ppm) by weight of the Product. The preparations were made by dissolving the Product in acetone and diluting the solutions with water containing 0.01% by weight of a wetting agent sold under the trade name "LISSAPOL" NX until the liquid preparations contained the required concentratio of the Product. […]
propertyMeasured: mortality at 100 ppm

1) COc1ccc(C(COCc2ccc(F)c(Oc3ccccc3)c2)C(F)(F)F)cc1 (centres unmarked) ... < 50%
2) FC(F)(F)Oc1ccc(C(COCc2cccc(Oc3ccc(Cl)cc3)c2)C(F)(F)F)cc1 (centres unmarked) ... 80 to 100%
3) CCCc1ccc(C(COCc2ccc(F)c(Oc3ccccc3)c2)C(F)(F)F)cc1 (centres unmarked) ... 80 to 100%
4) Fc1ccc(COCC(c2ccc(OC(F)(F)F)cc2)C(F)(F)F)cc1Oc1ccccc1 (centres unmarked) ... 80 to 100%
5) FC(F)(F)C(COCc1cccc(Oc2ccccc2)c1)c1ccc(Cl)cc1 (centres unmarked) ... < 50%
6) COCc1ccc(C(COCc2cccc(Oc3ccccc3)c2)C(F)(F)F)cc1 (centres unmarked) ... < 50%
7) Fc1ccc(C(Cl)(COCc2ccc(F)c(Oc3ccccc3)c2)C(F)(F)F)cc1 (centres unmarked) ... < 50%
8) CCOc1ccc(C(Cl)(COCc2cccc(Oc3ccccc3)c2)C(F)(F)F)cc1 (centres unmarked) ... < 50%

----------
Quick reference: mortality at 500 ppm of the listed items.
tested on: Myzus persicae; assay: Insecticidal test, Myzus persicae (aphids), contact; type: in vivo; conditions: 72 h, 500 ppm, Chinese Cabbage leaf, 3 days, read-out: grading of mortality, MP
propertyMeasured: mortality at 500 ppm

1. FC(F)(F)Oc1ccc(C(=COCc2cccc(Oc3ccccc3)c2)C(F)(F)F)cc1 [Compound 463] ... 80 to 100%
2. Cc1ccc(C(O)(COCc2cccc(Oc3ccccc3)c2)C(F)(F)F)cc1 (stereo not shown) [Compound 120] ... < 50%
3. CCOc1ccc(C(F)(COCc2cccc(Oc3ccccc3)n2)C(F)(F)F)cc1 (stereo not shown) [Compound 76] ... 80 to 100%
4. CCOc1ccc(C(COCc2cccc(Nc3ccc(F)cc3)c2)C(F)(F)F)cc1 (stereo not shown) [Compound 11] ... < 50%

----------
Quick reference: mortality at 500 ppm of the listed items.
tested on: Myzus persicae; experiment: Insecticidal test, Myzus persicae (aphids), contact; assay type: in vivo; settings: 72 h, 500 ppm, Chinese Cabbage leaf, 3 days, read-out: grading of mortality, MP
propertyMeasured: mortality at 500 ppm

1) CCOc1ccc(C(COCc2cccc(Oc3ccccc3)c2)C(F)(F)F)cc1 (centres unmarked) [Compound 1] ... 80 to 100%
2) CCOc1ccc(C(COC(c2cccc(Oc3ccccc3)c2)C(F)(F)F)C(F)(F)F)cc1 (racemic) [Compound 264] ... < 50%
3) CCOc1c(F)cc(C(COCc2cccc(Oc3ccccc3)c2)C(F)(F)F)cc1F (racemic) [Compound 163] ... 80 to 100%
4) OC(COCc1cccc(Oc2ccccc2)c1)(c1ccc2c(c1)OCO2)C(F)(F)F (centres unmarked) [Compound 128] ... < 50%
5) CCCc1ccc(C(Cl)(COCc2ccc(F)c(Oc3ccccc3)c2)C(F)(F)F)cc1 (centres unmarked) [Compound 53] ... 80 to 100%
6) OC(COCc1ccc(F)c(Oc2ccccc2)c1)(c1ccc2c(c1)CCC2)C(F)(F)F (centres unmarked) [Compound 124] ... < 50%
7) CCOc1ccc(C(COCc2ccc(F)c(Oc3ccccc3)c2)C(F)(F)F)cc1 (centres unmarked) [Compound 33] ... 80 to 100%
8) Fc1ccc(COCC(F)(c2ccc(Cl)cc2)C(F)(F)F)cc1Oc1ccccc1 (centres unmarked) [Compound 81] ... 80 to 100%

----------
Quick reference: mortality at 500 ppm of the listed items.
tested on: Myzus persicae; experiment: Insecticidal test, Myzus persicae (aphids), contact; type: in vivo; conditions: 72 h, 500 ppm, Chinese Cabbage leaf, 3 days, read-out: grading of mortality, MP
propertyMeasured: mortality at 500 ppm

1) OC(COCc1cccc(Oc2ccccc2)n1)(c1ccc(OC(F)(F)F)cc1)C(F)(F)F (stereo not shown) [Compound 136] ... < 50%
2) OC(COCc1cccc(Oc2ccccc2)c1)(c1ccc(C(F)(F)F)cc1)C(F)(F)F (stereo not shown) [Compound 137] ... 80 to 100%
3) CCOc1ccc([C@H](CO[C@@H](C#N)c2cccc(Oc3ccccc3)c2)C(F)(F)F)cc1 (racemic) [Compound 252] ... 80 to 100%
4) Fc1ccc(COCC(Cl)(c2ccc3c(c2)CCC3)C(F)(F)F)cc1Oc1ccccc1 (stereo not shown) [Compound 52] ... < 50%

----------
System: Musca domestica
Assay: Insecticidal test, Musca domestica (houseflies - adults), contact
Assay type: in vivo
Settings: 24 h, 500 ppm, cotton wool/sugar, 1 day, read-out: grading of mortality, MD
Experimental: The activity of the Product was determined using a variety of insect and acarine pests. The Product was used in the form of liquid preparations containing 500, 250 or 100 parts per million (ppm) by weight of the Product. The preparations were made by dissolving the Product in acetone and diluting the solutions with water containing 0.01% by weight of a wetting agent sold under the trade name "LISSAPOL" NX until the liquid preparations contained the required concentratio of the Product. […]
Quick reference: mortality at 500 ppm of the listed items.
propertyMeasured: mortality at 500 ppm

1. Fc1ccc(COCC(F)(c2ccc(Cl)cc2)C(F)(F)F)cc1Oc1ccccc1 (stereo not shown) [Compound 81] ... 80 to 100%
2. CCCc1ccc(C(=COCc2ccc(F)c(Oc3ccccc3)c2)C(F)(F)F)cc1 [Compound 460] ... < 50%
3. CCOc1ccc(C(F)(COCc2cccc(-c3ccccc3)c2C)C(F)(F)F)cc1 (stereo not shown) [Compound 80] ... 80 to 100%
4. Fc1ccc(COCC(Cl)(c2ccc(Cl)cc2)C(F)(F)F)cc1Oc1ccccc1 (stereo not shown) [Compound 50] ... 80 to 100%

----------
Quick reference: mortality at 500 ppm of the listed items.
test system: Musca domestica; test: Insecticidal test, Musca domestica (houseflies - adults), contact; type: in vivo; conditions: 24 h, 500 ppm, cotton wool/sugar, 1 day, read-out: grading of mortality, MD
propertyMeasured: mortality at 500 ppm

1) CCOc1ccc(C(COCc2ccc(F)c(Oc3ccc(Br)cc3)c2)C(F)(F)F)cc1 (stereo not drawn) [Compound 6] ... 80 to 100%
2) CCOc1ccc(C(O)(COCc2cccc(Oc3ccccc3)n2)C(F)(F)F)cc1 (stereo not drawn) [Compound 141] ... 80 to 100%
3) FC(F)(F)Oc1ccc(C(F)(COCc2cccc(Oc3ccccc3)c2)C(F)(F)F)cc1 (stereo not drawn) [Compound 82] ... 80 to 100%
4) FC(F)(F)C(Cl)(COCc1cccc(Oc2ccccc2)c1)c1ccc2c(c1)OCO2 (stereo not drawn) [Compound 64] ... 50 to 79%
5) FC(F)(F)C(COCc1cccc(Oc2ccccc2)c1)c1ccc2c(c1)OCO2 (stereo not drawn) [Compound 31] ... 80 to 100%
6) CCOc1ccc(C(COCc2ccc(F)c(Oc3ccc(Cl)cc3)c2)C(F)(F)F)cc1 (stereo not drawn) [Compound 5] ... 80 to 100%
7) CCOc1ccc(C(COCc2cccc(Nc3ccc(F)cc3)c2)C(F)(F)F)cc1 (stereo not drawn) [Compound 11] ... 50 to 79%
8) FC(F)(F)C(COCc1cccc(Oc2ccc(Cl)cc2)c1)c1ccc2c(c1)OCO2 (stereo not drawn) [Compound 32] ... 80 to 100%
9) CCOc1ccc(C(COCc2ccc(F)c(Cc3ccccc3)c2)C(F)(F)F)cc1 (stereo not drawn) [Compound 8] ... 80 to 100%
10) OC(COCc1cccc(Oc2ccccc2)c1)(c1ccc(OC(F)(F)F)cc1)C(F)(F)F (stereo not drawn) [Compound 139] ... 80 to 100%
11) Fc1ccc(COC=C(c2ccc3c(c2)CCC3)C(F)(F)F)cc1Oc1ccccc1 [Compound 459] ... < 50%
12) CCOc1ccc(C(COCc2cccc(-c3ccccc3)c2C)C(F)(F)F)cc1 (stereo not drawn) [Compound 7] ... 80 to 100%
13) Fc1ccc(COCC(Cl)(c2ccc3c(c2)CCC3)C(F)(F)F)cc1Oc1ccccc1 (stereo not drawn) [Compound 52] ... 50 to 79%
14) CCOc1c(F)cc(C(COCc2cccc(Oc3ccccc3)c2)C(F)(F)F)cc1F (racemic) [Compound 163] ... 80 to 100%
15) FC(F)(F)c1ccc(C(F)(COCc2cccc(Oc3ccccc3)c2)C(F)(F)F)cc1 (stereo not drawn) [Compound 84] ... 80 to 100%
16) FC(F)(F)C(Cl)(COCc1cccc(Oc2ccc(Cl)cc2)c1)c1ccc2c(c1)OCO2 (stereo not drawn) [Compound 65] ... < 50%
17) OC(COCc1cccc(Oc2ccccc2)c1)(c1ccc(C(F)(F)F)cc1)C(F)(F)F (stereo not drawn) [Compound 137] ... < 50%
18) CCOc1ccc(C(O)(COCc2cccc(-c3ccccc3)c2C)C(F)(F)F)cc1 (stereo not drawn) [Compound 142] ... < 50%
19) FC(F)(F)Oc1ccc(C(=COCc2cccc(Oc3ccccc3)c2)C(F)(F)F)cc1 [Compound 463] ... < 50%
20) Fc1ccc(COC=C(c2ccc(Cl)cc2)C(F)(F)F)cc1Oc1ccccc1 [Compound 458] ... 80 to 100%
21) COCc1ccc(C(COCc2cccc(Oc3ccc(Cl)cc3)c2)C(F)(F)F)cc1 (stereo not drawn) [Compound 23] ... 50 to 79%
22) OC(COCc1ccc(F)c(Oc2ccccc2)c1)(c1ccc(Br)cc1)C(F)(F)F (stereo not drawn) [Compound 127] ... 50 to 79%
23) CC(C)(C)c1ccc(C(COCc2ccc(F)c(Oc3ccccc3)c2)C(F)(F)F)cc1 (stereo not drawn) [Compound 21] ... 80 to 100%
24) OC(COCc1cccc(Oc2ccccc2)n1)(c1ccc(OC(F)(F)F)cc1)C(F)(F)F (stereo not drawn) [Compound 136] ... 80 to 100%
25) CCOc1ccc(C(COCc2c(F)c(F)c(C)c(F)c2F)C(F)(F)F)cc1 (stereo not drawn) [Compound 2] ... 50 to 79%
26) Fc1ccc(COCC(c2ccc(Cl)cc2)C(F)(F)F)cc1Oc1ccccc1 (stereo not drawn) [Compound 15] ... 80 to 100%
27) CCOc1ccc(C(O)(COCc2ccc(F)c(Oc3ccc(Cl)cc3)c2)C(F)(F)F)cc1 (stereo not drawn) [Compound 117] ... 50 to 79%
28) CCOc1ccc(C(COCc2ccc(F)c(Oc3ccccc3)c2)C(F)(F)F)cc1 (stereo not drawn) [Compound 33] ... 80 to 100%
29) Cc1ccc(C(O)(COCc2cccc(Oc3ccccc3)c2)C(F)(F)F)cc1 (stereo not drawn) [Compound 120] ... < 50%
30) OC(COCc1cccc(Oc2ccc(Cl)cc2)c1)(c1ccc2c(c1)OCO2)C(F)(F)F (stereo not drawn) [Compound 129] ... 80 to 100%
31) CCOc1ccc(C(Cl)(COCc2ccc(F)c(Oc3ccc(Cl)cc3)c2)C(F)(F)F)cc1 (stereo not drawn) [Compound 44] ... 80 to 100%
32) CCOc1c(F)cc(C(COCc2ccc(F)c(Oc3ccccc3)c2)C(F)(F)F)cc1F (racemic) [Compound 166] ... 80 to 100%
33) CCOc1ccc(C(Cl)(COCc2ccc(F)c(Oc3ccc(Br)cc3)c2)C(F)(F)F)cc1 (stereo not drawn) [Compound 43] ... 80 to 100%
